Reference source: ChEMBL document CHEMBL1138509

assay: Safety margin, ratio of LD10 for nude mouse to GID75 for human MKN45 cells; assay type: toxicity, cell-based; settings: mkn-45
readoutLabel: selectivity ratio

QUERY: Recorded selectivity ratio for O=C1c2c(c3c4ccc(O)cc4n([C@@H]4O[C@H](CO)[C@@H](O)[C@H](O)[C@H]4O)c3c3[nH]c4cc(O)ccc4c23)C(=O)N1NC(CO)CO , please?
RESULT: > 36

====

assay: Safety margin, ratio of LD10 for nude mouse to GID75 for human MX1 cells; format: toxicity, cell-based
readoutLabel: selectivity ratio

QUERY: Recorded selectivity ratio for O=C1c2c(c3c4ccc(O)cc4n([C@@H]4O[C@H](CO)[C@@H](O)[C@H](O)[C@H]4O)c3c3[nH]c4cc(O)ccc4c23)C(=O)N1NC(CO)CO , please?
RESULT: > 13

====

test system: MKN-45; experiment: Cytotoxicity against human MKN45 cells after 72 hrs; type: functional, cell-based; details: MKN-45, 72 h
readoutLabel: IC50
Please report the result as a number followed by the unit.

QUERY: Find IC50 (MKN-45) for the entry O=C1c2c(c3c4ccc(O)cc4n([C@@H]4O[C@H](CO)[C@@H](O)[C@H](O)[C@H]4O)c3c3[nH]c4cc(O)ccc4c23)C(=O)N1NC(CO)CO
RESULT: 4.8 nM
